Target: UniProt Q9EPK8
Sequence (Q9EPK8 whole entry): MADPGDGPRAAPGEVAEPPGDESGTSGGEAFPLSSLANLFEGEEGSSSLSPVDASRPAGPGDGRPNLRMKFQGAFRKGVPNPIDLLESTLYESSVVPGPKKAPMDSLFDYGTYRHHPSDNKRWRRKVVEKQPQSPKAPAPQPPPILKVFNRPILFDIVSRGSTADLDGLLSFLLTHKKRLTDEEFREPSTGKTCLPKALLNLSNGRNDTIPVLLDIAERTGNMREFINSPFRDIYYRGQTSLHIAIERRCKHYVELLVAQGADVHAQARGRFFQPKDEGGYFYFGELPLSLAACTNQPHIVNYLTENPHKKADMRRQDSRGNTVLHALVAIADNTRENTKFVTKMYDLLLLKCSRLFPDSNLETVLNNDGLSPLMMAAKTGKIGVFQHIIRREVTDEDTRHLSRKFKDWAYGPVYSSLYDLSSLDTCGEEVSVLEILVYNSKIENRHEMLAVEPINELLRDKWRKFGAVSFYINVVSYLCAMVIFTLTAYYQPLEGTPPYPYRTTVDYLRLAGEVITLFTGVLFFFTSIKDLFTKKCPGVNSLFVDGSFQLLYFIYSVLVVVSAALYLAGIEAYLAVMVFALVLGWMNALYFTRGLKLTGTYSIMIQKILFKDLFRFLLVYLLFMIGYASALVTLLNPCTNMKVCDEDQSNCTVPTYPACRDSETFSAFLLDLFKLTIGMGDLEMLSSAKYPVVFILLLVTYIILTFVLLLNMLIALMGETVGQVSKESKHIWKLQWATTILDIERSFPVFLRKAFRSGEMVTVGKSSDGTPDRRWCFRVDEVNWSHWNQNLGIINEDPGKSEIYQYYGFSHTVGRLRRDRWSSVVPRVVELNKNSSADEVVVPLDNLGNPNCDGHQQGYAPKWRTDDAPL
Assay: Block of TRPV4 agonist-induced calcium responses in retinal ganglion cells
quantity name: IC50

Fill in IC50 for record `Cc1c(C(=O)Nc2cccc(C(F)(F)F)c2)cc(-c2ccccc2)n1CCCN1CCOCC1`
~300 nM
